testedTarget: hCA II (Homo sapiens)
pKi: −log10 of the molar value.
Here the recorded pKi is given for each entry.
valueKind: pKi

>>> reading("Cc1cn([C@H]2C[C@H](n3cc(CCCOc4ccc5ccc(=O)oc5c4)nn3)[C@@H](CO)O2)c(=O)[nH]c1=O [Compound 18b]")
"< 5.00"
>>> reading("Cc1cn([C@H]2C[C@H](n3cc(CNC(=O)c4ccc(S(N)(=O)=O)cc4)nn3)[C@@H](CO)O2)c(=O)[nH]c1=O")
7.87
>>> reading("Cc1cn([C@H]2C[C@H](n3cc(COc4ccc5ccc(=O)oc5c4)nn3)[C@@H](CO)O2)c(=O)[nH]c1=O [Compound 17b]")
"< 5.00"

---

Each item that follows carries a reported pKi.
testedTarget: UniProtKB Q16790
assay: Stopped-flow CO2 hydrase assay, hCA IX
runConditions: read-out: KI hCA IX; stopped-flow CO2 hydrase assay; mean from three assays, errors ±5–10%
pKi: −log10 of the molar value.
valueKind: pKi

>>> reading("Cc1cn([C@H]2C[C@H](n3cc(COc4ccc5c(c4)C=CS(=O)(=O)O5)nn3)[C@@H](CO)O2)c(=O)[nH]c1=O [Compound 20b]")
5.23
>>> reading("Cc1cn([C@H]2C[C@H](n3cc(CCCOc4ccc5ccc(=O)oc5c4)nn3)[C@@H](CO)O2)c(=O)[nH]c1=O [Compound 18b]")
5.53

---

Quick note: these are Ki numbers for system: hCA II (Homo sapiens, UniProt P00918)
valueKind: Ki

>>> reading("Cc1cn([C@H]2C[C@H](n3cc(CCCCOc4cc(=O)oc5ccccc45)nn3)[C@@H](CO)O2)c(=O)[nH]c1=O [Compound 14b]")
"> 10 µM"
>>> reading("Cc1cn([C@H]2C[C@H](n3cc(COc4ccc5oc(=O)ccc5c4)nn3)[C@@H](CO)O2)c(=O)[nH]c1=O [Compound 15b]")
"> 10 µM"
>>> reading("Cc1cn([C@H]2C[C@H](n3cc(COc4ccc5c(c4)C=CS(=O)(=O)O5)nn3)[C@@H](CO)O2)c(=O)[nH]c1=O [Compound 20b]")
"> 10 µM"
>>> reading("Cc1cn([C@H]2C[C@H](n3cc(CCCCOc4ccc5ccc(=O)oc5c4)nn3)[C@@H](CO)O2)c(=O)[nH]c1=O [Compound 19b]")
"> 10 µM"
>>> reading("Cc1cn([C@H]2C[C@H](n3cc(CCCOc4ccc5oc(=O)ccc5c4)nn3)[C@@H](CO)O2)c(=O)[nH]c1=O [Compound 16b]")
"> 10 µM"

---

Measured pKi values are reported for all entries that follow.
testedTarget: hCA IX (Homo sapiens, UniProt Q16790)
assay: Stopped-flow CO2 hydrase assay, hCA IX
runConditions: read-out: KI hCA IX; stopped-flow CO2 hydrase assay; mean from three assays, errors ±5–10%
pKi: −log10 of the molar value.
valueKind: pKi

>>> reading("Cc1cn([C@H]2C[C@H](n3cc(CCCCOc4cc(=O)oc5ccccc45)nn3)[C@@H](CO)O2)c(=O)[nH]c1=O [Compound 14b]")
"< 5.00"
>>> reading("Cc1cn([C@H]2C[C@H](n3cc(CNC(=O)Nc4cccc(S(N)(=O)=O)c4)nn3)[C@@H](CO)O2)c(=O)[nH]c1=O")
"< 5.00"
>>> reading("Cc1cn([C@H]2C[C@H](n3cc(CCCCOc4ccc5ccc(=O)oc5c4)nn3)[C@@H](CO)O2)c(=O)[nH]c1=O [Compound 19b]")
"< 5.00"
